- Tested on: HMLE_sh_eGFP viability, CellTiter-Glo luminescence, 72 h
- PROTOCOL_SUMMARY: cytotoxicity in HMLE control line with eGFP shRNA, dose response, counter-screen for HMLE_sh_ECad selective toxicity project, cell-based, HMLE_sh_eGFP, luminescence (AID 463074);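 note: counterscreen control line to flag general toxicity for the HMLE_sh_ECad screen; potency for loss of viability as luminescence drops below DMSO wells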
Documented AC50 across a set of compounds
READOUT_TYPE: AC50

[[record]]
compound = "CCOC(=O)c1c(NC(=O)C(=O)N/N=C/c2ccccc2O)sc2c1CCCCC2"
meas_value = "2.84 µM"

[[record]]
compound = "CCN(Cc1ccccc1)c1ccc(/C=N/NC(=S)NC(C)C)cc1"
meas_value = "4.6 µM"

[[record]]
compound = "CC(C)c1ccccc1OCC(O)CN(CC(O)COc1cccc2ccccc12)C(C)C (stereo unspecified)"
meas_value = "3.47 µM"

[[record]]
compound = "COc1ccccc1Nc1ccc(NC(=O)c2cccc([N+](=O)[O-])c2C)cc1"
meas_value = "3.82 µM"

[[record]]
compound = "Cc1ccc(Nc2cc(C)c3ccc(O)cc3n2)cc1C"
meas_value = "9.16 µM"

[[record]]
compound = "COc1cc2c(cc1NC(=O)Nc1ccc(C)cc1)oc1ccccc12"
meas_value = "11.3 µM"

[[record]]
compound = "COc1ccc(-c2cc([C@H]3[C@@H]4C=CCC[C@@]4(C)C(=O)N3Cc3ccccc3)ccc2F)cc1OC"
meas_value = "5.67 µM"

[[record]]
compound = "COc1cc2c(cc1OC)C(c1ccc(-c3ccc(Cl)c(Cl)c3)o1)=NCC2"
meas_value = "3.99 µM"

[[record]]
compound = "COc1ccc(/C=N/N(c2ccccc2)c2ccccc2)cc1O"
meas_value = "7.09 µM"

[[record]]
compound = "Cc1ccccc1CS(=O)(=O)c1ncc(Cl)c(C(=O)Nc2ccc(F)cc2)n1"
meas_value = "4.11 µM"

[[record]]
compound = "COc1cccc(N2CCN(Cc3nc4scc(-c5ccccc5)c4c(=O)[nH]3)CC2)c1"
meas_value = "2.59 µM"


// data source = PubChem BioAssay AID463074
